- MEASURED_ON: Human immunodeficiency virus type 1 integrase (Human immunodeficiency virus 1)
- TEST_SUMMARY: Inhibition of HIV1 integrase strand transfer activity expressed in Escherichia coli by PAGE
READOUT: IC50 (µM)

[[record]]
compound = "C[C@H](c1ccc2ccccc2c1)N1Cc2ccc(O)c(O)c2C1=O"
unit = "µM"
recorded_value = 24


[I] C[C@@H](c1ccc2ccccc2c1)N1Cc2ccc(O)c(O)c2C1=O
[II] O=C1c2ccc(O)c(O)c2C(=O)N1Cc1cccc2ccccc12
[III] O=C1c2ccc(O)c(O)c2C(=O)N1[C@H]1CCCc2ccccc21
[IV] C[C@H](c1ccccc1)N1Cc2ccc(O)c(O)c2C1=O
IN: Please list the entries, largest IC50 first. Lab note: final answer is the ordered label list.
OUT: IV, III, I, II
(IV: 100 µM, III: 10 µM, I: 4.6 µM, II: 0.72 µM)

[a] C[C@@H](c1cccc2ccccc12)N1Cc2ccc(O)c(O)c2C1=O
[b] O=C1c2ccc(O)c(O)c2C(=O)N1Cc1ccc2ccccc2c1
IN: Of the two listed items, a and b , which carries the larger IC50 figure? Answer by stating the label of the chosen item.
OUT: a

* * *

- MEASURED_ON: Human immunodeficiency virus type 1 integrase (Human immunodeficiency virus 1, UniProt Q7ZJM1)
- Sequence (Q7ZJM1 whole entry): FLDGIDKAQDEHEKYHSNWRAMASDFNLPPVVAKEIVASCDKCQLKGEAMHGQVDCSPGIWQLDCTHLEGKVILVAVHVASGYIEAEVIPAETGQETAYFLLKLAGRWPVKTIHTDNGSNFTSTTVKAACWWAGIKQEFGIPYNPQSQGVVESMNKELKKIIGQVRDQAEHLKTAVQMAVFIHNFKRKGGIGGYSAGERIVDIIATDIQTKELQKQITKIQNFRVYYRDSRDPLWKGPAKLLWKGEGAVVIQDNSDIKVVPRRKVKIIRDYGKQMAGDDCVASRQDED
- TEST_SUMMARY: Inhibition of HIV1 integrase 3'-processing activity expressed in Escherichia coli by PAGE
pIC50: −log10 of the molar value.
READOUT: pIC50

Worked examples follow.
[[record]]
smiles_input = "O=C1c2ccc(O)c(O)c2C(=O)N1Cc1cccc2ccccc12"
recorded_value = 3.82

[[record]]
smiles_input = "O=C1c2ccc(O)c(O)c2C(=O)N1C1Cc2ccccc2C1"
recorded_value = 4.43

[[record]]
smiles_input = "O=C1c2ccc(O)c(O)c2C(=O)N1Cc1ccc2ccccc2c1"
recorded_value = 4.74


[I] O=C1c2c(ccc(O)c2O)CN1Cc1ccc2ccccc2c1
[II] O=C1c2ccc(O)c(O)c2C(=O)N1[C@H]1CCc2ccccc21
IN: When the recorded pIC50 values are compared, which is smaller: that of I or that of II ? Answer by stating the label of the chosen item.
OUT: II
(II: 3.89, I: 4.62)

* * *

- MEASURED_ON: UniProtKB Q7ZJM1
- TEST_SUMMARY: Inhibition of HIV1 integrase 3'-processing activity expressed in Escherichia coli by PAGE
Here the recorded IC50 is given for each entry.

Worked examples follow.
[[record]]
molecule = "C[C@@H](c1cccc2ccccc12)N1Cc2ccc(O)c(O)c2C1=O"
recorded_value = "> 111 µM"

[[record]]
molecule = "C[C@H](c1cccc2ccccc12)N1Cc2ccc(O)c(O)c2C1=O"
recorded_value = "> 111 µM"

[[record]]
molecule = "O=C1c2ccc(O)c(O)c2C(=O)N1CCc1ccccc1"
recorded_value = "157 µM"


IN: For C[C@@H](C1CCCc2ccccc21)N1Cc2ccc(O)c(O)c2C1=O (some centres undefined) , what is its reported IC50?
OUT: > 333 µM

IN: Now try C[C@H](C1CCc2ccccc21)N1Cc2ccc(O)c(O)c2C1=O (some centres undefined) .
OUT: > 333 µM

* * *

- MEASURED_ON: UniProt Q7ZJM1
- TEST_SUMMARY: Inhibition of HIV1 integrase strand transfer activity expressed in Escherichia coli by PAGE
pIC50: −log10 of the molar value.
READOUT: pIC50

Worked examples follow.
[[record]]
compound = "O=C1c2ccc(O)c(O)c2C(=O)N1[C@H]1CCc2ccccc21"
measured_on = "UniProt Q7ZJM1"
recorded_value = 5.74

[[record]]
compound = "C[C@H](C1CCc2ccccc21)N1Cc2ccc(O)c(O)c2C1=O (some centres undefined)"
measured_on = "UniProt Q7ZJM1"
recorded_value = 4.00

[[record]]
compound = "O=C1c2ccc(O)c(O)c2C(=O)N1[C@@H]1CCCc2ccccc21"
measured_on = "UniProt Q7ZJM1"
recorded_value = 4.09


[a] C[C@@H](C1CCCc2ccccc21)N1Cc2ccc(O)c(O)c2C1=O (some centres undefined)
[b] O=C1c2ccc(O)c(O)c2C(=O)N1Cc1ccccc1
IN: Of the two listed items, a and b , which carries the larger pIC50 figure? Answer by stating the label of the chosen item.
OUT: b

[1] C[C@H](C1CCCc2ccccc21)N1Cc2ccc(O)c(O)c2C1=O (some centres undefined)
[2] O=C1c2c(ccc(O)c2O)CN1Cc1ccc2ccccc2c1
[3] O=C1c2ccc(O)c(O)c2C(=O)N1C1Cc2ccccc2C1
[4] O=C1c2ccc(O)c(O)c2C(=O)N1CCc1ccccc1
[5] O=C1c2ccc(O)c(O)c2C(=O)N1[C@@H]1CCc2ccccc21
IN: Please list the entries, largest pIC50 first. Lab note: final answer is the ordered label list.
OUT: 2, 3, 4, 5, 1
(2: 6.10, 3: 5.40, 4: 5.17, 5: 4.92, 1: 3.92)

[A] C[C@H](c1cccc2ccccc12)N1Cc2ccc(O)c(O)c2C1=O
[B] O=C1c2c(ccc(O)c2O)CN1C1Cc2ccccc2C1
IN: Of the two listed items, A and B , which carries the larger pIC50 figure? Answer by stating the label of the chosen item.
OUT: B

[1] C[C@@H](C1CCc2ccccc21)N1Cc2ccc(O)c(O)c2C1=O (some centres undefined)
[2] C[C@@H](c1ccccc1)N1Cc2ccc(O)c(O)c2C1=O
IN: When the recorded pIC50 values are compared, which is smaller: that of 1 or that of 2 ? Answer by stating the label of the chosen item.
OUT: 2
(2: 4.35, 1: 5.22)
